# assay: Half life in mouse at 100 mg/kg, ip after 30 mins
# Type: ADME, organism-based
# Set-up: dose 100 mg/kg, route intraperitoneal
# run_conditions: in vivo
measure_name: half-life (h)
Express the result in h but write the number alone.

Report half-life, nothing else, for this compound: `CN(CCCN(C)c1ncccn1)C(=O)[C@@H](N)CCCNC(=N)N`
1

* * *

# assay: Cmax in mouse at 100 mg/kg, ip after 30 mins
# Type: ADME, organism-based
# Set-up: dose 100 mg/kg, route intraperitoneal
# run_conditions: in vivo
measure_name: Cmax (µg/mL)
Only the number, expressed in µg/mL, is required.

Note Cmax for the compound shown: `CN(CCCN(C)c1ncccn1)C(=O)[C@@H](N)CCCNC(=N)N`
56
